Below is a list of entries, each paired with its recorded normalized RNA/DNA level without ligand (log10) value.
B1: library; a variant is named by its letters at N, in order (parent)
chain: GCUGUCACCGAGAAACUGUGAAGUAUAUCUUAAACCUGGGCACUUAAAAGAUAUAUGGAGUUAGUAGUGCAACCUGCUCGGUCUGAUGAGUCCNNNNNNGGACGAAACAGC

Variants of: B1
Assay: normalized RNA/DNA level without ligand (relative to sTRSVctl = 100) (log10 (% of sTRSVctl)); HEK293T; ligand: cyclic di-GMP (c-di-GMP-II aptamer); higher = less ribozyme self-cleavage, higher mRNA level
Details: reporter: mCherry (pCS4076), ligand present: no
metric: normalized RNA/DNA level without ligand (log10)

In [3]: df
Out[3]:
    variant_notation   val
 0            CGUCGG   1.7
 1            AUUCGG   1.7
 2            UGUCUG  1.74
 3            GUACCC  1.75
 4            UCAAAU   1.5
 5            UUGCGU  1.69
 6            CCGAAG  1.31
 7            CUGGCA  1.64
 8            UCUGGA  1.58
 9            CUUCCU  1.64
10            AGGAAC  1.54
11            GCACGG  1.55
12            CUGUAC  1.67
13            AUAUCA  1.63
14            GAAGAC  1.56
15            CCUCCA  1.68
16            GCCCUU   1.7
17            AUGGGC  1.63
18            AAUGUG  1.58
19            UAUUGC  1.76
20            GUCUAG  1.62
21            GAUGUG  1.71
22            CUGCGU  1.72
23            CCCAAU  1.55
24            UUCGUU  1.74
25            GUGUCC  1.77
26            GAGGGA  1.65
27            GUUUGC  1.66
28            AACUUU  1.74
29            UAGCUU  1.68
30            AAAUAC  1.66
31            UCGCUA  1.46
32            CCCUCU  1.62
33            AAUGUC  1.68
34            UCUUUC  1.76
35            GCAUUU  1.55
36            AACACG  1.55
37            UGCACG   1.8
38            ACUUAC  1.71
39            GUGUGA  1.41
40            AGGGCC  1.84
41            UGAAUU  1.68
42            AACGAG  1.53
43            GACCAG  1.82
44            GCUACA  1.58
45            UCGCAA  1.47
46            GAAAGA  1.41
47            GAUUUA  1.65
48            GUUGUA  1.57
49            GGACGC  1.66
50            UUAUUU  1.75
51            AAAUUA  1.54
52            CUCGCU   1.8
53            UGAAGA  1.62
54            ACUCUA   1.6
55            AAACAC   1.6
56            UACUUU  1.68
57            GUAUCC  1.73
58            GUUAAU  1.62
59            CUGAAC   1.6
60            UUAAGG  1.77
